Target: Serine/threonine-protein kinase PAK 5 (Homo sapiens)
Reported endpoint: ΔTm (°C)
Quick reminder: number only, in °C, skip the unit.

N#C/C(=C\c1ccc(O)c(O)c1)C(=O)Nc1ccccc1    0.4
O=C1Cc2c([nH]c3ccc([N+](=O)[O-])cc23)-c2ccccc2N1    3.8
O=c1c(O)c(-c2ccc(O)c(O)c2)oc2cc(O)cc(O)c12    0.5
Cc1c2ccncc2c(C)c2c1[nH]c1ccccc12    0.9
Cc1cc2ncc(-c3ccccc3)nc2cc1C    0.8

The value of ΔTm measured for the molecule `COc1cc2ncnc(Nc3ccc(F)c(Cl)c3)c2cc1OCCCN1CCOCC1` turned out to be 0.2

Lab book: ΔTm of `O=C1Nc2ccccc2/C1=C\c1ccc[nH]1` noted as 0.7

For record `CN(C)S(=O)(=O)c1ccc2c(c1)/C(=C/c1cc3c([nH]1)CCCC3)C(=O)N2` the listed ΔTm is 0.4

The molecule identified as `CC(C)N(CCO)c1nc(Nc2cccc(Cl)c2)c2ncn(C(C)C)c2n1` registered its ΔTm at 3

Note to self: ΔTm recorded for `Brc1c(Br)c(Br)c2[nH]nnc2c1Br` was 0.2

Just so you know, measured ΔTm for `COc1ccc(CNC(=O)Nc2ncc([N+](=O)[O-])s2)cc1` came out at 0.7

Lab book: ΔTm of `Cc1nc(Nc2ncc(C(=O)Nc3c(C)cccc3Cl)s2)cc(N2CCN(CCO)CC2)n1` noted as -0.6

molecule `O=c1sn(Cc2ccccc2)c(=S)n1Cc1ccccc1` , ΔTm observed: 0.5

The reported ΔTm of the molecule `COc1cc2ncnc(Nc3ccc(NC(=O)c4ccccc4)cc3)c2cc1OC` was -0.2

response.value for `O=c1ccc2ccc(O)c(O)c2o1` (field: ΔTm) = -0.1

Memo: `CN(C)C[C@@H]1CCn2cc(c3ccccc32)C2=C(C(=O)NC2=O)c2cn(c3ccccc23)CCO1` , reported ΔTm: 0.9

GET /value?item= `COc1ccc(Cl)cc1NC(=O)Nc1cc(C)nc2ccccc12` &field=ΔTm returns 2.6

Briefly, ΔTm measured for `COc1cc(/C=C/C(=O)CC(=O)/C=C/c2ccc(O)c(OC)c2)ccc1O` : 1.3

* * *

Target: UniProtKB O15530
Sequence (whole entry): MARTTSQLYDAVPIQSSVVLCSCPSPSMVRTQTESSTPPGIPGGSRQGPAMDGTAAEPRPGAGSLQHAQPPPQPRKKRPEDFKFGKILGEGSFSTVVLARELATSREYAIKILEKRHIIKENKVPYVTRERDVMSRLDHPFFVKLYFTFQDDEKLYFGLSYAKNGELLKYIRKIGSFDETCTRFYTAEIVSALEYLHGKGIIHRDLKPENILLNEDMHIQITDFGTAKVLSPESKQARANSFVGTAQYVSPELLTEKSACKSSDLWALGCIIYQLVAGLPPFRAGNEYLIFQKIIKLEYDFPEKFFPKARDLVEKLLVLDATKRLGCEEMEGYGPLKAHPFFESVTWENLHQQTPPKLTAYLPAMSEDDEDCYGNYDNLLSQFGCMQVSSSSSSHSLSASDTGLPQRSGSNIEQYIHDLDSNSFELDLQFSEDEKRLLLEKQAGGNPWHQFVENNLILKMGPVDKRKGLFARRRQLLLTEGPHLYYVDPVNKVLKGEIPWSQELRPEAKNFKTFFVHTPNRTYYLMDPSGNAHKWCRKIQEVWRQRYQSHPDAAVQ
Reported endpoint: ΔTm (°C)
Give the value, in units of °C, as a plain number.

Consider `COc1ccc(CNc2nc(N(CCO)CCO)nc3c2ncn3C(C)C)cc1` . Its measured ΔTm is 0

So for `OC[C@H]1O[C@@H](n2cnc3cc(Cl)c(Cl)cc32)[C@H](O)[C@@H]1O` , the logged ΔTm turned out to be 0.1

Form: molecule = `Cc1c2ccncc2c(C)c2c1[nH]c1ccccc12` ; ΔTm = 8.6
